Origin of the recorded values: patent US20150051206A1

# Target Or System: c-kit (Homo sapiens)
# Construct: human Mo7e cells which endogenously express c-kit; endogenous in cells; host or cells: human Mo7e cells (promegakaryocytic leukemia line), stimulated with human recombinant SCF
# Sequence (P10721 26-976): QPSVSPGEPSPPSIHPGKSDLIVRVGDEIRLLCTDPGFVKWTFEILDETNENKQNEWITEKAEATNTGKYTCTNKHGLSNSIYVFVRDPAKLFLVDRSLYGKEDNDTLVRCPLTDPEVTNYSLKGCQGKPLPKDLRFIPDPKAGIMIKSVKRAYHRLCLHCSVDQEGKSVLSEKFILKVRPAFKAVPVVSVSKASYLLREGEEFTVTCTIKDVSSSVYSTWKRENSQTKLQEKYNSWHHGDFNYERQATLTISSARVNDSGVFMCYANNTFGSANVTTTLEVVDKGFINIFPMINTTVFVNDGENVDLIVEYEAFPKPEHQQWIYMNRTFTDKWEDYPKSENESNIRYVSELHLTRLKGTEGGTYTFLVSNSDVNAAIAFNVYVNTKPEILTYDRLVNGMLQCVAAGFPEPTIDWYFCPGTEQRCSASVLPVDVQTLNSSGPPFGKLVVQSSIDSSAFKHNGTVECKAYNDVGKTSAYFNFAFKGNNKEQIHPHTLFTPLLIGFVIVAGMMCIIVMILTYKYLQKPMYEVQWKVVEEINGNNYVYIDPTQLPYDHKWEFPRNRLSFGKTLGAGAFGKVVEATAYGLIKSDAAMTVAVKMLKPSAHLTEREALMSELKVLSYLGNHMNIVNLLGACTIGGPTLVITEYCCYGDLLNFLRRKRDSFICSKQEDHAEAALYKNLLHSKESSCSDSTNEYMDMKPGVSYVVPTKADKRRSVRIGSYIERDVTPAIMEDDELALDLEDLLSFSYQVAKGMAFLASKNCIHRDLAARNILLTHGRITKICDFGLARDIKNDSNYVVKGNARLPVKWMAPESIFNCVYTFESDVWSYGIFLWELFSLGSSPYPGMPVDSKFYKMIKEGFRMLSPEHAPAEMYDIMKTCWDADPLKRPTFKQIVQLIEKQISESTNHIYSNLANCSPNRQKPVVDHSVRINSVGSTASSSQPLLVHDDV
# Assay Details: Mo7e cell proliferation assay (SCF dependent proliferation)
# Type: cell-based
# Condition Info: Table 2; Mo7e cells stimulated with human recombinant SCF, 48 hours; 1% FBS
pIC50: −log10 of the molar value.
Observation Type: pIC50

Study these solved cases before continuing.
| Compound | pIC50 |
| --- | --- |
| Cc1ccc(-c2nc(-c3ccc(C(F)(F)F)cc3)no2)cc1NC(=O)c1cnc2ccccn12 [F31] | 5.98 |
| Cc1ccc(-c2noc(Cn3ccnc3)n2)cc1NC(=O)c1cnc2ccccn12 [F61] | 6.55 |
| Cc1ccc(Nc2noc(-c3cccnn3)n2)cc1NC(=O)c1cnc2ccccn12 [F64] | 6.94 |

A. Cc1ccc(-c2noc(CCn3cncn3)n2)cc1NC(=O)c1cnc2ccccn12 [F58]
B. COc1cccc(F)c1-c1noc(-c2ccc(C)c(NC(=O)c3cnc4ccccn34)c2)n1 [F40]
C. Cc1ccc(-c2noc(Cn3cncn3)n2)cc1NC(=O)c1cnc2ccccn12 [F63]
Task field, ranking: reported pIC50, descending order. I would appreciate it if you listed the labels in the requested order.
A, C, B
